Target: arginase (Rattus norvegicus, UniProt P07824)
Sequence (P07824 1-323): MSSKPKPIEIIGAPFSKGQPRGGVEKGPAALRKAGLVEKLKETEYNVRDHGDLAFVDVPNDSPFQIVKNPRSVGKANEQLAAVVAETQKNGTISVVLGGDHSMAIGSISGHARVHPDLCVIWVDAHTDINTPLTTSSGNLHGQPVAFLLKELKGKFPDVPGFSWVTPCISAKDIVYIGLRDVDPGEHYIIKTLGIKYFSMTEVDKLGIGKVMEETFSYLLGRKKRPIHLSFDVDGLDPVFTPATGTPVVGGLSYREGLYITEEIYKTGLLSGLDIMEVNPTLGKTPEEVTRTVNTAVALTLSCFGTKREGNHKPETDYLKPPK
Test: isothermal titration calorimetry
Format: binding
Parameters: made in house
measurement_label: pKd
Just the number, please; pKd means minus log10 of the concentration in mol/L.

Which pKd value belongs to N[C@@H](CSCCB(O)O)C(=O)O [compound 15, S-(2-boronoethyl)-L-cysteine] ?
5.65
